# TESTED_SYSTEM: dipeptidyl peptidase (DP IV) (UniProt P27487)
# ASSAY: Determination of IC50 against DP IV (hydrolysis of Gly-Pro-pNA)
# ASSAY_SETUP: compounds obtained by preparative synthesis
# maps each entry to its pIC50
The scale used: pIC50 is minus the common logarithm of the concentration in molar units.

Field: example entries. Status: answers known.
NCc1c(-c2ccc(Cl)cc2Cl)ncn1Cc1ccccc1Cl [Example 81b] | 6.86
NCc1c(-c2ccc(Cl)cc2Cl)ncn1Cc1ccsc1 [Example 130b] | 7.21
NCc1c(-c2ccc(Cl)cc2Cl)ncn1Cc1ccccc1F [Example 112b] | 6.71
NCc1c(-c2ccc(Cl)cc2Cl)ncn1CCCn1ccnc1 [Example 104b] | 6.39
NCc1c(-c2ccc(Cl)cc2Cl)ncn1Cc1ccccn1 [Example 39b] | 7.23

Notebook entry, dipeptidyl peptidase (DP IV) (UniProt P27487) assay: pIC50 of NCc1c(-c2ccc(Cl)cc2Cl)ncn1Cc1cccnc1 [Example 121b] = ?
7.08

Notebook entry, dipeptidyl peptidase (DP IV) (UniProt P27487) assay: pIC50 of NCc1c(-c2ccc(Cl)cc2Cl)ncn1C(CO)c1ccccc1 (stereo not drawn) [Example 126b] = ?
6.84

Notebook entry, dipeptidyl peptidase (DP IV) (UniProt P27487) assay: pIC50 of NCc1c(-c2ccc(Cl)cc2Cl)ncn1CCCCCO [Example 38b] = ?
6.07

Notebook entry, dipeptidyl peptidase (DP IV) (UniProt P27487) assay: pIC50 of NCc1c(-c2ccc(Cl)cc2Cl)ncn1Cc1ccc2c(c1)OCO2 [Example 125b] = ?
6.43

Notebook entry, dipeptidyl peptidase (DP IV) (UniProt P27487) assay: pIC50 of NCc1c(-c2ccc(Cl)cc2Cl)ncn1CCc1ccccc1Cl [Example 21b] = ?
6.29

Notebook entry, dipeptidyl peptidase (DP IV) (UniProt P27487) assay: pIC50 of COc1ccccc1Cn1cnc(-c2ccc(Cl)cc2Cl)c1CN [Example 120b] = ?
6.58

Notebook entry, dipeptidyl peptidase (DP IV) (UniProt P27487) assay: pIC50 of COc1cccc(Cn2cnc(-c3ccc(Cl)cc3Cl)c2CN)c1 [Example 59b] = ?
6.66
